# System Tested: UniProt P42892
# Measurement Description: In vitro inhibition to recombinant human endothelin converting enzyme
# Set-up: concentration or dose not given beside the values
# Condition: concentration not given here
Listed here: items and their measured inhibition.
Metric Name: inhibition (%)

O=P(O)(O)C(Cc1cccc2ccccc12)N[C@@H](Cc1ccc(-c2ccccc2)cc1)c1nnn[nH]1 (stereo partly drawn)
95
O=C(O)[C@H](Cc1ccc(-c2ccccc2)cc1)NCP(=O)(O)O
20
O=P(O)(O)C(Cc1ccc2c(c1)OCO2)N[C@H](Cc1ccc(-c2ccccc2)cc1)c1nnn[nH]1 (stereo partly drawn)
76

---

# System Tested: Endothelin-converting enzyme 1 (Homo sapiens, UniProt P42892)
# Sequence (P42892 whole entry): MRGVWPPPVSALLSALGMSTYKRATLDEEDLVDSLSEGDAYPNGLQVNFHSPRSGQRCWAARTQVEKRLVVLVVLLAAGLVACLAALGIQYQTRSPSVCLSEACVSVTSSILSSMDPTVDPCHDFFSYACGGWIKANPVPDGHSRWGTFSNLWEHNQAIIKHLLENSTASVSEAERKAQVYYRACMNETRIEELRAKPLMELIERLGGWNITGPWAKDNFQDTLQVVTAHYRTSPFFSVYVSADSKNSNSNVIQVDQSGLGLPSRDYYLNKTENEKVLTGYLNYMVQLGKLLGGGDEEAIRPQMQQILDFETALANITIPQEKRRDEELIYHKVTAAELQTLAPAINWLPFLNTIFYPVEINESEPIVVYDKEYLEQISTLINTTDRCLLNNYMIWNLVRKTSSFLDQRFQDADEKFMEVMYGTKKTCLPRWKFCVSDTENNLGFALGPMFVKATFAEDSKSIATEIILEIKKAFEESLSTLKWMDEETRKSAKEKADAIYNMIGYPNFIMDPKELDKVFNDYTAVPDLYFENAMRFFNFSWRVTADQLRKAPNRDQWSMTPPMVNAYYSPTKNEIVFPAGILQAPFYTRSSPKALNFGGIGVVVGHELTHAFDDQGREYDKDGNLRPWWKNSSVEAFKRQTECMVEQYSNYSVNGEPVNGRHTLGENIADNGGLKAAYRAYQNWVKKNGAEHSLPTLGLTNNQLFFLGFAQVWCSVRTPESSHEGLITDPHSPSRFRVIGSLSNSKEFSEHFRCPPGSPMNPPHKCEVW
# Measurement Description: In vitro inhibition against recombinant human Endothelin converting enzyme 1 activity
pIC50: −log10 of the molar value.
Metric Name: pIC50

O=P(O)(O)C(Cc1ccc2ccccc2c1)N[C@H](Cc1ccc(-c2ccccc2)cc1)c1nnn[nH]1 (some centres undefined)
5.85
O=P(O)(O)C(Cc1cccc2c1OCO2)N[C@H](Cc1ccc(-c2ccccc2)cc1)c1nnn[nH]1 (some centres undefined)
5.96
O=P(O)(O)C(Cc1cccc2ccccc12)N[C@@H](Cc1ccc(-c2ccccc2)cc1)c1nnn[nH]1 (some centres undefined)
7.77

---

# System Tested: Endothelin-converting enzyme 1 (Homo sapiens, UniProt P42892)
# Measurement Description: In vitro inhibition against recombinant human Endothelin converting enzyme 1 activity
Catalogue of IC50 readings, one per entry.
Metric Name: IC50

O=P(O)(O)C(Cc1ccc2c(c1)OCO2)N[C@H](Cc1ccc(-c2ccccc2)cc1)c1nnn[nH]1 (some centres undefined)
0.39 µM
O=P(O)(O)C(N[C@@H](Cc1ccc(-c2ccccc2)cc1)c1nnn[nH]1)c1cccc2ccccc12 (some centres undefined)
> 1 µM
O=P(O)(O)C(Cc1ccccc1)N[C@@H](Cc1ccc(-c2ccccc2)cc1)c1nnn[nH]1 (some centres undefined)
0.28 µM
O=P(O)(O)C(Cc1cccc2ccccc12)N[C@H](Cc1ccc(-c2ccccc2)cc1)c1nnn[nH]1 (some centres undefined)
0.16 µM
